Reference for the values: ChEMBL document CHEMBL3301361

- assay-overview: in vitro
- recorded-conditions: hepatocytes
measurement-type: hepatocyte CLint

molecular-string: C=CC(=O)Nc1cccc(CN2C(=O)N(c3c(Cl)c(OC)cc(OC)c3Cl)Cc3cnc(NCCCCN(CC)CC)nc32)c1
measurement-type: hepatocyte CLint
value-reported: 39.8 µL/min/1e6 cells
--
molecular-string: O=C(CSc1nc2c(c(=O)n1-c1ccccc1)SCC2)Nc1ncc(-c2ccccc2)s1
measurement-type: hepatocyte CLint
value-reported: 129 µL/min/1e6 cells
--
molecular-string: C=CC(=O)Nc1ccc2ncnc(Nc3cccc(C)c3)c2c1
measurement-type: hepatocyte CLint
value-reported: > 150 µL/min/1e6 cells
--
molecular-string: O=C(O)CCc1ccc(OCc2cc(Cl)ccc2-c2ccccc2)cc1
measurement-type: hepatocyte CLint
value-reported: 13.8 µL/min/1e6 cells
--
molecular-string: COc1ccc(Cc2c(N)n[nH]c2N)cc1
measurement-type: hepatocyte CLint
value-reported: 3.63 µL/min/1e6 cells
